- assay-system: kappa opioid receptor (OPRK1) (Homo sapiens (Human), UniProt P41145)
- Sequence (P41145 whole entry): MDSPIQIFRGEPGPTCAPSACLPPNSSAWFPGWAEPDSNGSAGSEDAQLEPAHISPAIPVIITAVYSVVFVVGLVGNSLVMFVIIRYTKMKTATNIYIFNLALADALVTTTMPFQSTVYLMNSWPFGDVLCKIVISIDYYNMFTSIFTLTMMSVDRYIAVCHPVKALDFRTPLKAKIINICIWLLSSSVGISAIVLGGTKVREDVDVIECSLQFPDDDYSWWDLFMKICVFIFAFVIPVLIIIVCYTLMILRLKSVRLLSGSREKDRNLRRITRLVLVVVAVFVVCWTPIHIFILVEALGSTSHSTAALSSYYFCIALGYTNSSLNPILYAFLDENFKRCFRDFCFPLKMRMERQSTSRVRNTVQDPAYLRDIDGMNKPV
- test-method-notes: OPRK1 antagonist assay (b-arrestin-2-TEV / b-lactamase reporter cell line, EC80 U-50488 challenge)
- Format: cell-based
- conditions: read-out: IC50 nM (% inhib if other than 50%); antagonist mode vs EC80 U-50488; NA = not active at concentrations up to 10 μM
In this section, each of the compounds is paired with its reported IC50.
parameter: IC50 (nM)

Cc1ccc2nc(N3CCC(NC4CCCC(O)C4)CC3)c(-c3nc(C)no3)cc2c1 (centres unmarked)
10
Cc1noc(-c2cc3ccccc3nc2N2CCC(NC3CCCCC3)C(F)C2)n1 (centres unmarked)
52
CO[C@H]1CN(c2nc3ccc(C)cc3cc2C(=O)OC(C)C)CC[C@H]1NC1CCCCC1
10.6
COC(=O)c1cc(I)cnc1N1CCC(NC2CCCCC2C)C(CO)C1 (centres unmarked)
116
Cc1cnc(N2CCC(NC3CCCCC3C)C(CO)C2)c(-c2nc(C)no2)c1 (centres unmarked)
132
Cc1cnc(-c2cc(C)cnc2N2CCC(NC3CCCCC3)CC2)nc1
7680
CCC1(CO)CN(c2ncc(C)cc2-c2nc(C)no2)CCC1NC1CCCCC1 (centres unmarked)
76
Cc1noc(-c2cc(C)c(C)nc2N2CCC(NC3CCCCC3)C(CO)C2)n1 (centres unmarked)
62

* * *

- assay-system: kappa opioid receptor (OPRK1) (Homo sapiens (Human))
- test-method-notes: OPRK1 antagonist assay (b-arrestin-2-TEV / b-lactamase reporter cell line, EC80 U-50488 challenge)
- Format: cell-based
- conditions: read-out: IC50 nM (% inhib if other than 50%); antagonist mode vs EC80 U-50488; NA = not active at concentrations up to 10 μM
// reported log10 IC50 per item
parameter: log10 IC50 (log10 of the value in nM)

COC(=O)c1cc(Br)cnc1N1CCC(N2CCCCC2)CC1
3.32
COC(=O)c1cc(C)nnc1N1CC[C@@H](NC2CCCCC2)[C@H](O)C1
1.51
Cc1noc(-c2cc3ccc(F)cc3nc2N2CCC(NC3CCCCC3)CC2)n1
0.85
COC1CN(c2nc3ccccc3cc2-c2nc(C)no2)CCC1NC1CCCC1 (stereo not drawn)
0.40
COC(=O)c1cc(I)cnc1N1CCC(NC2CCCC2)C(CO)C1 (stereo not drawn)
1.72
COC1CN(c2ncc(C(F)(F)F)cc2-c2nc(C)no2)CCC1NC1CCCCC1 (stereo not drawn)
2.26
CCOC(=O)c1cc(C(=O)OC)c(C)nc1N1CCC(NC2CCCCC2)C(O)C1 (stereo not drawn)
1.79
Cc1cnc(N2CCC(NC3CCCCC3)C(CO)C2)c(-c2ncco2)c1 (stereo not drawn)
2.56
CCOC(=O)c1cc(C(=O)OC)c(C)nc1N1CCC(NC2CCCCC2)C(CO)C1 (stereo not drawn)
2.79
CO[C@H]1CN(c2nc3ccc(C)cc3nc2-c2nc(C)no2)CC[C@H]1NC1CCCCC1
1.98
CCN(CC)C(=O)c1cc(Br)cnc1N1CC[C@@H](NC2CCCCC2)[C@H](O)C1
3.68
CO[C@H]1CN(c2nc3ccc(C)cc3cc2-c2nc(C)no2)CC[C@H]1NC1CCOCC1
2.63
COC1CN(c2nc3ccc(C)cc3cc2-c2nc(C3CC3)no2)CCC1NC1CCCCC1 (stereo not drawn)
-0.30
Cc1cnc(N2CCC(NC3CCCCC3)CC2)c(-c2ccncn2)c1
3.06
Cc1noc(-c2cc3cc(C)c(F)cc3nc2N2CCC(NCC(C)C)CC2)n1
1.52
COC(=O)c1cc(C)c(C)nc1N1CCC(NC2CCCCC2)C(CO)C1 (stereo not drawn)
3.15
COC1CN(c2ncc(C)cc2-c2nc(C)no2)CCC1NC1CCCC1 (stereo not drawn)
1.36
Cc1cnc(N2CCC(NC3CCCCC3)C(CO)C2)c(C=O)c1 (stereo not drawn)
3.65
